Measured TGI values are reported for all entries that follow.
system: NCI-H522 lung; test: NCI tumour cell line growth inhibition, 48 h

// solved cases for TGI follow
compound: CC(C)NC(=O)CN1CCN(c2c(O)c3c(c(O)c2Cl)C(=O)C=CC3=O)CC1
TGI: 3.33 µM

compound: CC(=O)Nc1c(C)cc2c(nc3n2CCC3O)c1[N+](=O)[O-] (stereo not given)
TGI: > 100 µM

compound: CN(C)CC/[N+]([O-])=C(/c1ccccc1)C12CC3CC(CC(C3)C1)C2
TGI: 29.2 µM

compound: COc1cccc(/C=N/C(/N=C/c2cccc(OC)c2O)c2cccc(OC)c2O)c1O
TGI: 49.2 µM

compound: CC(C)/C(Cl)=N\OC(=O)Nc1cccc(Cl)c1
TGI: 3.33 µM

compound: COc1cc(/C=C/C(=O)C2(C(=O)/C=C/c3cc(OC)c(OC)c(OC)c3)CCCCC2)cc(OC)c1OC
TGI: 96.9 µM

Prompt: Lab request: please report TGI under test system NCI-H522 lung for O=C1c2ccccc2-c2c1c1ccccc1c(=O)n2CCCn1ccnc1
Completion: > 100 µM

Prompt: Lab request: please report TGI under test system NCI-H522 lung for CCCCCCCCCCNC(=O)CCC(NC(=O)c1ccc(N(C)Cc2cnc3nc(N)nc(N)c3n2)cc1)C(=O)NCCCCCCCCCC (stereo not given)
Completion: 16.6 µM

Prompt: Lab request: please report TGI under test system NCI-H522 lung for N/C(=N\N=C\c1ccc2c(c1)OCCO2)NO
Completion: 42.1 µM

Prompt: Lab request: please report TGI under test system NCI-H522 lung for CCOC(=O)NC(Nc1ccc(C(=O)OCC)cc1)(C(F)(F)F)C(F)(F)F
Completion: > 100 µM

----------
test system: MCF7 breast; test: NCI tumour cell line growth inhibition, 48 h
experimentalEndpoint: GI50

// solved cases for GI50 follow
givenSmiles: COc1cc(-c2nc(SCCC(C)C)nc(Nc3ccc(S(N)(=O)=O)cc3)c2C#N)cc(OC)c1OC
observed: 3.19 µM
//
givenSmiles: CN(C)CCCNC(=O)c1cc(NC(=O)c2cc(NC(=O)CCNS(=O)(=O)c3ccc4c(c3)C(=O)c3ccccc3C4=O)cn2C)cn1C
observed: > 100 µM

Read the next record carefully.
Prompt: Lab request: please report GI50 under test system MCF7 breast for O=C1CCc2c(sc3[nH]c(=S)n(Cc4ccc(Cl)cc4)c(=O)c23)C1
Completion: 2.22 µM

----------
Measured TGI values are reported for all entries that follow.
system: HOP-92 NSCLC; test: NCI tumour cell line growth inhibition, 48 h

compound: CCOC(=O)c1c(N2CCOCC2)[nH]c(=O)c(C(c2ccco2)c2c(O)c(C(=O)OCC)c(N3CCOCC3)[nH]c2=O)c1O
TGI: > 100 µM

Prompt: Lab request: please report TGI under test system HOP-92 NSCLC for O=C1C(Cl)=C(NCc2ccco2)C(=O)c2ccccc21
Completion: 62.2 µM

Prompt: Lab request: please report TGI under test system HOP-92 NSCLC for CCOC(=O)NC(Nc1ccc(C(=O)OCC)cc1)(C(F)(F)F)C(F)(F)F
Completion: > 100 µM

Prompt: Lab request: please report TGI under test system HOP-92 NSCLC for Cc1cc(C)c(-n2c(-c3ccc(Br)cc3)cs/c2=N\N=C2C=C(C(C)(C)C)C(=O)C(C(C)(C)C)=C2)c(C)c1
Completion: > 89.8 µM

Prompt: Lab request: please report TGI under test system HOP-92 NSCLC for C=C1C2C[C@@H]3O[C@H]4C[C@H]5O[C@@]6(C[C@@H]7O[C@]8(C[C@H](C)[C@@H]9O[C@@H]%10CC(CO)O[C@@H]%10C[C@@H]9O8)C[C@H](C)[C@@H]7O6)C[C@H]5O[C@H]4[C@H](C)[C@H]3OC(=O)C[C@H]3CC[C@@H]4OC5[C@H]6O[C@]7(CC[C@H]8CC(=C)[C@H](CC[C@@H](C[C@H]1C)O2)O8)CC6O[C@@H]5[C@@H](O7)[C@H]4O3 (some centres not stated)
Completion: > 1 µM

Prompt: Lab request: please report TGI under test system HOP-92 NSCLC for O=C1c2ccc(O)c(O)c2C(=O)c2c(O)ccc(O)c21
Completion: 57.7 µM

Prompt: Lab request: please report TGI under test system HOP-92 NSCLC for O=C(O)C1CC(O)CN1 (configuration not stated)
Completion: > 100 µM

Prompt: Lab request: please report TGI under test system HOP-92 NSCLC for COc1ccc(C(=O)/C=C/c2cc(O)c(O)c(F)c2F)c(OC)c1
Completion: > 100 µM

Prompt: Lab request: please report TGI under test system HOP-92 NSCLC for O=C(c1ccccc1)c1cn(/N=C\c2ccccc2)c(=O)nc1-c1ccccc1
Completion: > 100 µM

Prompt: Lab request: please report TGI under test system HOP-92 NSCLC for CC(=O)c1cc2ccccc2oc1=O
Completion: > 100 µM

Prompt: Lab request: please report TGI under test system HOP-92 NSCLC for COc1cc2c(cc1OC)/C(=C\c1ccccc1N)C(=O)OC2
Completion: 27.6 µM

----------
tested on: A549 NSCLC; assay: NCI tumour cell line growth inhibition, 48 h; in the data active means GI50 below about 0.43 µM; inactive means the rest
Use one of these outcomes when replying: 1 = active, 0 = inactive

givenSmiles: Cn1cc(-c2ccc(-c3ccc(C4=NC5(CC5)C(=O)N4C[C@@H]4CCN(C(=O)C5CC5)C4)cc3)cc2)cn1
categoryLabel: 0

givenSmiles: CN(C)c1ccc(/C=C/c2cc[n+](C)c(/C=C/c3ccc(N(C)C)cc3)c2)cc1
categoryLabel: 1

givenSmiles: CCOC(=O)c1c2c(n3ccccc13)C(=O)c1ncccc1C2=O
categoryLabel: 1

Prompt: Can you look up the reported call for OCC#Cc1ccccc1C#CCCCCCC#Cc1ccccc1C#CCO for me?
Completion: 0

----------
Measured GI50 values are reported for all entries that follow.
system: CAKI-1 renal; test: NCI tumour cell line growth inhibition, 48 h

givenSmiles: Cc1ccc(O)c(NC(=O)c2ccc(CNc3ccnc(C(F)(F)F)c3)cc2)c1
experimentalEndpoint: GI50
observed: 6330 nM

givenSmiles: COc1cc2c(cc1OCCCC(=O)Nc1ccc3ccc4cccc5ccc1c3c45)N=C[C@@H]1CCCN1C2=O
experimentalEndpoint: GI50
observed: 434 nM

givenSmiles: CCN1CCN(CC(=O)N2c3cccc4cccc(c34)N(C(=O)CN3CCN(CC)CC3)C2c2cn(-c3ccccc3)nc2-c2cccc([N+](=O)[O-])c2)CC1
experimentalEndpoint: GI50
observed: 1400 nM

givenSmiles: CN(C)CCCNC(=O)c1cc(NC(=O)c2cc(NC(=O)CCNS(=O)(=O)c3ccc4c(c3)C(=O)c3ccccc3C4=O)cn2C)cn1C
experimentalEndpoint: GI50
observed: > 100000 nM

Read the next record carefully.
Prompt: I have this molecule here, O=C1CCc2c(sc3[nH]c(=S)n(Cc4ccc(Cl)cc4)c(=O)c23)C1 , and I need its recorded GI50.
Completion: 451 nM

----------
system: ACHN renal; experiment: NCI tumour cell line growth inhibition, 48 h
Measured TGI values are reported for all entries that follow.

// solved cases for TGI follow
compound: CN(C)c1ccc(/C=C/c2cc[n+](C)c(/C=C/c3ccc(N(C)C)cc3)c2)cc1
TGI: 2.4 µM

compound: Nc1nc2c3nc(Nc4ccccc4)sc3nc(=O)n2c2sc(Nc3ccccc3)nc12
TGI: > 100 µM

compound: N#Cc1ccc(-n2c3ccccc3c3ccc4c(c32)C(=O)C=CC4=O)cc1
TGI: 3.01 µM

Prompt: I have this compound here, O=C(O)C1CC(O)CN1 (stereo not given) , and I need its recorded TGI.
Completion: > 100 µM

Prompt: I have this compound here, CCCCCCCCCCCCC(O)[C@H]1CC[C@H](C(O)CCCCCC(=O)CCCCC2CC(C(C)=O)C(=O)O2)O1 (stereo not given in full) , and I need its recorded TGI.
Completion: 70.4 µM

----------
system: A549 NSCLC; test: NCI tumour cell line growth inhibition, 48 h
Measured log10 TGI values are reported for all entries that follow.
Friendly reminder: values = log10 of TGI, unit µM.

// solved cases for log10 TGI follow
compound: Cc1cc(N2CCOCC2)cc2[nH]c(-c3c(NC[C@@H](O)c4cccc(Cl)c4)cc[nH]c3=O)nc12
log10 TGI: 0.63
--
compound: CC1=C(C(=O)Nc2ccccc2)C2(CCCCC2)C(C#N)=C(SCC(=O)Nc2ccc(Br)cc2)N1
log10 TGI: 1.35
--
compound: O=C(/C=C/c1ccc(C(F)(F)F)cc1)c1ccc(Nc2nc(NCCO)nc(Nc3ccc(Cl)cc3)n2)cc1
log10 TGI: 1.13
--
compound: COc1cc(Cc2nccc3cc(OC)c(OC)cc23)c(N=NN(C)C)cc1OC
log10 TGI: 1.89
--
compound: CCCSS[C@H]1NC(=O)[C@H]1NC(=O)COc1ccccc1
log10 TGI: 1.83
--
compound: C=CC(Cl)(CBr)CCC(Br)C(C)(C)Cl (stereo unspecified)
log10 TGI: 1.95
--
compound: N#Cc1ccc(-n2c3ccccc3c3ccc4c(c32)C(=O)C=CC4=O)cc1
log10 TGI: 1.58
--
compound: O=C1CCc2c(sc3[nH]c(=S)n(Cc4ccc(Cl)cc4)c(=O)c23)C1
log10 TGI: 1.22

Read the next record carefully.
Prompt: I have this compound here, OCC#Cc1ccccc1C#CCCCCCC#Cc1ccccc1C#CCO , and I need its recorded log10 TGI.
Completion: 1.66
